# experimental.details: In vivo biodistribution and clearance in PC-3 tumor-bearing mice
# condition.notes: male, NMRI-Foxn1 nu/nu, mouse, lung, iv, total radioactivity; 48 h p.i., i.v.; read-out: % uptake lungs
experimental.endpoint: tissue uptake at 48 h (%ID/g)
Reply with just the number (in %ID/g).

molecule | unit.annotation | tissue uptake at 48 h
CC(C)C[C@H](NC(=O)C[C@H](O)[C@H](CC(C)C)NC(=O)[C@H](Cc1c[nH]cn1)NC(=O)CNC(=O)[C@@H](NC(=O)[C@H](C)NC(=O)[C@H](Cc1c[nH]c2ccccc12)NC(=O)[C@H](CCC(N)=O)NC(=O)[C@@H](Cc1ccccc1)NC(=O)CN1CCC(NC(=O)CN2CCN(CC(=O)O)CCN(CC(=O)O)CCN(CC(=O)O)CC2)CC1)C(C)C)C(N)=O [[^177Lu]Lu-RM2, metal not drawn] | %ID/g | 0.01

Shifting focus to the molecule that follows.
// sample CC(C)CC(CC(C)C)NC(=O)[C@H](Cc1cnc[nH]1)NC(=O)CNC(=O)[C@@H](NC(=O)[C@H](C)NC(=O)[C@H](Cc1c[nH]c2ccccc12)NC(=O)[C@H](CCC(N)=O)NC(=O)[C@@H](Cc1ccccc1)NC(=O)COCC(=O)Nc1ccc(CNC(=O)CN2CCN(CC(=O)O)CCN(CC(=O)O)CCN(CC(=O)O)CC2)cc1)C(C)C [[^177Lu]Lu-NeoB, metal not drawn] , its tissue uptake at 48 h was 0.01
